# Test system: Streptococcus pyogenes
# TEST: Antibacterial activity against erythromycin-susceptible Streptococcus pyogenes 07U084 by broth microdilution method
# Format: functional
The entries below come with measured MIC values attached.
Write the number in µg/mL without appending the unit.

smiles_record=CC[C@H]1OC(=O)[C@H](C)C(=O)[C@H](C)[C@@H](O[C@@H]2O[C@H](C)C[C@H](N(C)C)[C@H]2O)[C@@](C)(OC)C[C@@H](C)C(=O)[C@H](C)[C@H]2N(CCCSc3nc4ccccc4[nH]3)C(=O)O[C@]12C target_under_test="Streptococcus pyogenes" quantity_kind=MIC meas_value=0.016
smiles_record=CC[C@H]1OC(=O)[C@H](C)C(=O)[C@H](C)[C@@H](O[C@@H]2O[C@H](C)C[C@H](N(C)C)[C@H]2O)[C@@](C)(OC)C[C@@H](C)C(=O)[C@H](C)[C@H]2N(CCCSc3nc(-c4cccnc4)c[nH]3)C(=O)O[C@]12C target_under_test="Streptococcus pyogenes" quantity_kind=MIC meas_value=0.031
smiles_record=CC[C@H]1OC(=O)[C@H](C)C(=O)[C@H](C)[C@@H](O[C@@H]2O[C@H](C)C[C@H](N(C)C)[C@H]2O)[C@@](C)(OC)C[C@@H](C)C(=O)[C@H](C)[C@H]2N(CCCSc3nc(C)cc(C)n3)C(=O)O[C@]12C target_under_test="Streptococcus pyogenes" quantity_kind=MIC meas_value=0.125

Could you now consider this next compound?
Reported MIC, compound CCCc1cnc(SCCCN2C(=O)O[C@]3(C)[C@@H](CC)OC(=O)[C@H](C)C(=O)[C@H](C)[C@@H](O[C@@H]4O[C@H](C)C[C@H](N(C)C)[C@H]4O)[C@@](C)(OC)C[C@@H](C)C(=O)[C@H](C)[C@@H]23)nc1 : ____
0.125

###

# Test system: Streptococcus pneumoniae
# TEST: Antibacterial activity against erythromycin-susceptible Streptococcus pneumoniae 07H252 by broth microdilution method
# Type: functional
Form field: MIC (one value per entry).
Entry rule: numbers only, all in µg/mL.

Here are 5 compounds together with their reported answers.
compound="CC[C@H]1OC(=O)[C@H](C)C(=O)[C@H](C)[C@@H](O[C@@H]2O[C@H](C)C[C@H](N(C)C)[C@H]2O)[C@](C)(OC)C[C@@H](C)C(=O)[C@H](C)[C@H]2N(CCCCn3cnc(-c4cccnc4)c3)C(=O)O[C@]12C [TELITHROMYCIN]" quantity_kind=MIC meas_value=0.062
compound=CC[C@H]1OC(=O)[C@H](C)C(=O)[C@H](C)[C@@H](O[C@@H]2O[C@H](C)C[C@H](N(C)C)[C@H]2O)[C@@](C)(OC)C[C@@H](C)C(=O)[C@H](C)[C@H]2N(CCCSc3nnnn3C)C(=O)O[C@]12C quantity_kind=MIC meas_value=8
compound=CC[C@H]1OC(=O)[C@H](C)C(=O)[C@H](C)[C@@H](O[C@@H]2O[C@H](C)C[C@H](N(C)C)[C@H]2O)[C@@](C)(OC)C[C@@H](C)C(=O)[C@H](C)[C@H]2N(CCCSc3nc(-c4cccnc4)c[nH]3)C(=O)O[C@]12C quantity_kind=MIC meas_value=0.25
compound=CC[C@H]1OC(=O)[C@H](C)C(=O)[C@H](C)[C@@H](O[C@@H]2O[C@H](C)C[C@H](N(C)C)[C@H]2O)[C@@](C)(OC)C[C@@H](C)C(=O)[C@H](C)[C@H]2N(CCCSc3nccc(C)n3)C(=O)O[C@]12C quantity_kind=MIC meas_value=8
compound=CC[C@H]1OC(=O)[C@H](C)C(=O)[C@H](C)[C@@H](O[C@@H]2O[C@H](C)C[C@H](N(C)C)[C@H]2O)[C@@](C)(OC)C[C@@H](C)C(=O)[C@H](C)[C@H]2N(CCCSc3nc(C)cc(C)n3)C(=O)O[C@]12C quantity_kind=MIC meas_value=2

// below: MIC requested for another compound
Value lookup for MIC; key = CC[C@H]1OC(=O)[C@H](C)C(=O)[C@H](C)[C@@H](O[C@@H]2O[C@H](C)C[C@H](N(C)C)[C@H]2O)[C@@](C)(OC)C[C@@H](C)C(=O)/C(C)=C/[C@]1(C)OC(=O)NCCCSc1ncnc2[nH]ncc12
8

###

# Test system: Staphylococcus epidermidis
# TEST: Antibacterial activity against methicillin-resistant Staphylococcus epidermidis 07A066 by broth microdilution method
# Format: functional
QUANTITY KIND: MIC (µg/mL)
Lab book: enter the figure in µg/mL, no units written.

smiles_record=CC[C@H]1OC(=O)[C@H](C)[C@@H](O[C@H]2C[C@@](C)(OC)[C@@H](O)[C@H](C)O2)[C@H](C)[C@@H](O[C@@H]2O[C@H](C)C[C@H](N(C)C)[C@H]2O)[C@](C)(OC)C[C@@H](C)C(=O)[C@H](C)[C@@H](O)[C@]1(C)O target_under_test="Staphylococcus epidermidis" quantity_kind=MIC meas_value=8
smiles_record=CC[C@H]1OC(=O)[C@H](C)C(=O)[C@H](C)[C@@H](O[C@@H]2O[C@H](C)C[C@H](N(C)C)[C@H]2O)[C@@](C)(OC)C[C@@H](C)C(=O)[C@H](C)[C@H]2N(CCCSc3nccc(C)n3)C(=O)O[C@]12C target_under_test="Staphylococcus epidermidis" quantity_kind=MIC meas_value=0.5

# context switch: different compound, same MIC
Quick one: MIC of CCCc1cnc(SCCCN2C(=O)O[C@]3(C)[C@@H](CC)OC(=O)[C@H](C)C(=O)[C@H](C)[C@@H](O[C@@H]4O[C@H](C)C[C@H](N(C)C)[C@H]4O)[C@@](C)(OC)C[C@@H](C)C(=O)[C@H](C)[C@@H]23)nc1 ?
1

###

# Test system: Streptococcus pyogenes
# TEST: Antibacterial activity against erythromycin-resistant Streptococcus pyogenes 01-533 by broth microdilution method
# Type: functional
Consider the following molecules and their measured MIC readings.

smiles_record=CC[C@H]1OC(=O)[C@H](C)C(=O)[C@H](C)[C@@H](O[C@@H]2O[C@H](C)C[C@H](N(C)C)[C@H]2O)[C@@](C)(OC)C[C@@H](C)C(=O)[C@H](C)[C@H]2N(CCCSc3nc(-c4ccccc4)cs3)C(=O)O[C@]12C quantity_kind=MIC meas_value="1 µg/mL"
smiles_record=CC[C@H]1OC(=O)[C@H](C)C(=O)[C@H](C)[C@@H](O[C@@H]2O[C@H](C)C[C@H](N(C)C)[C@H]2O)[C@@](C)(OC)C[C@@H](C)C(=O)[C@H](C)[C@H]2N(CCCSc3nc(-c4cccnc4)c[nH]3)C(=O)O[C@]12C quantity_kind=MIC meas_value="0.125 µg/mL"
smiles_record=CC[C@H]1OC(=O)[C@H](C)C(=O)[C@H](C)[C@@H](O[C@@H]2O[C@H](C)C[C@H](N(C)C)[C@H]2O)[C@@](C)(OC)C[C@@H](C)C(=O)[C@H](C)[C@H]2N(CCCSc3nncs3)C(=O)O[C@]12C quantity_kind=MIC meas_value="1 µg/mL"

Now look at this entry.
Entry under review: CC[C@H]1OC(=O)[C@H](C)C(=O)[C@H](C)[C@@H](O[C@@H]2O[C@H](C)C[C@H](N(C)C)[C@H]2O)[C@@](C)(OC)C[C@@H](C)C(=O)[C@H](C)[C@H]2N(CCCSc3nnc(C)s3)C(=O)O[C@]12C . Reported MIC?
1 µg/mL

###

# Test system: Streptococcus pyogenes
# TEST: Antibacterial activity against erythromycin-susceptible Streptococcus pyogenes 07U084 by broth microdilution method
# Assay type: functional
QUANTITY KIND: MIC (µg/mL)
Supply the numeric figure in µg/mL, leaving out any unit text.

Consider the reported MIC for these molecules:
smiles_record=CC[C@H]1OC(=O)[C@H](C)C(=O)[C@H](C)[C@@H](O[C@@H]2O[C@H](C)C[C@H](N(C)C)[C@H]2O)[C@@](C)(OC)C[C@@H](C)C(=O)[C@H](C)[C@H]2N(CCCSc3nnnn3C)C(=O)O[C@]12C quantity_kind=MIC unit_symbol=µg/mL meas_value=0.062
smiles_record=CC[C@H]1OC(=O)[C@H](C)C(=O)[C@H](C)[C@@H](O[C@@H]2O[C@H](C)C[C@H](N(C)C)[C@H]2O)[C@@](C)(OC)C[C@@H](C)C(=O)[C@H](C)[C@H]2N(CCCSc3nnnn3-c3ccccc3)C(=O)O[C@]12C quantity_kind=MIC unit_symbol=µg/mL meas_value=0.125
smiles_record=CC[C@H]1OC(=O)[C@H](C)C(=O)[C@H](C)[C@@H](O[C@@H]2O[C@H](C)C[C@H](N(C)C)[C@H]2O)[C@@](C)(OC)C[C@@H](C)C(=O)[C@H](C)[C@H]2N(CCCSc3nc(-c4ccccc4)cs3)C(=O)O[C@]12C quantity_kind=MIC unit_symbol=µg/mL meas_value=0.25

Sample CC[C@H]1OC(=O)[C@H](C)C(=O)[C@H](C)[C@@H](O[C@@H]2O[C@H](C)C[C@H](N(C)C)[C@H]2O)[C@@](C)(OC)C[C@@H](C)C(=O)[C@H](C)[C@H]2N(CCCSc3nncs3)C(=O)O[C@]12C — what was its MIC?
0.062

Could you do the same for CC[C@H]1OC(=O)[C@H](C)C(=O)[C@H](C)[C@@H](O[C@@H]2O[C@H](C)C[C@H](N(C)C)[C@H]2O)[C@@](C)(OC)C[C@@H](C)C(=O)[C@H](C)[C@H]2N(CCCSc3nc(-c4ccccc4)c(-c4ccccc4)o3)C(=O)O[C@]12C , please?
0.5

// next record CC[C@H]1OC(=O)[C@H](C)C(=O)[C@H](C)[C@@H](O[C@@H]2O[C@H](C)C[C@H](N(C)C)[C@H]2O)[C@@](C)(OC)C[C@@H](C)C(=O)[C@H](C)[C@H]2N(CCCSc3nccc(C)n3)C(=O)O[C@]12C
0.125
